SYSTEM_NAME: Cytochrome P450 1A2 (Homo sapiens) (UniProt P05177)
Sequence (P05177 whole entry, looked up): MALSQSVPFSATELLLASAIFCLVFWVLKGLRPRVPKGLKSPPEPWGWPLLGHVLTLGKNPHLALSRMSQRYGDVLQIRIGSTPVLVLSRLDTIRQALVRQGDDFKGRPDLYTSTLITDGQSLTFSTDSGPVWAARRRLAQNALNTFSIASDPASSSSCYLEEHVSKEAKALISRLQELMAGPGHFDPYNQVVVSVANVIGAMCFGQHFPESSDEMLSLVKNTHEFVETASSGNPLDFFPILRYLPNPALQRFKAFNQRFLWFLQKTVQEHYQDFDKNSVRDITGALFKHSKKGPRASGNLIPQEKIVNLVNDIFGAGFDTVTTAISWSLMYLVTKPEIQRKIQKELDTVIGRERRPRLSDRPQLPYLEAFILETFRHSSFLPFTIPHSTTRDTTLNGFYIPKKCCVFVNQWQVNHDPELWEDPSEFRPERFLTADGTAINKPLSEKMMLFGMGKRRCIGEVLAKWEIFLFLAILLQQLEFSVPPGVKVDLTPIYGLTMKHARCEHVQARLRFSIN
METHOD_SUMMARY: p450-cyp1a2 (AID 410)
CONDITION_SUMMARY: recombinant CYP1A2, luciferin-ME demethylation, luminescence; series mostly up to 57 µM
Inconclusive results are not listed. Activity calls are given as the source filed them. The call rests on the fitted dose curve.
Possible outcomes: yes (1) (active), no (0) (inactive)

* O=C(Nc1ccccc1)N1CC[C@@]2(CCCN(C(=O)c3cnccn3)C2)C1 | no (0)
* COc1cccc(-c2nccc(NCc3cccc(C)c3)n2)c1 | yes (1)
* COc1cccc(-c2cc(NCc3cccs3)ncn2)c1 | yes (1)
* N#Cc1cccc(NC(=O)N2CC[C@@]3(CCCN(C(=O)c4ccncc4)C3)C2)c1 | no (0)
* CN(C)c1ccc(-c2ccc3ncnc(-n4ccnc4)c3c2)cc1 | yes (1)
* O=S(=O)(c1ccccc1)N1CCC2(CCCN(c3ncccn3)C2)CC1 | yes (1)
* O=C(Nc1ccccc1)N1CCC2(CC1)CCN(C(=O)c1cnccn1)CC2 | no (0)
* Cc1cccc(CNc2ncnc3ccc(-c4ccoc4)cc23)c1 | yes (1)

---

METHOD_SUMMARY: qHTS drug screen for cell cycle checkpoint inhibitors in PARPi-resistant BRCA-mutant ovarian cancer cell lines. (AID 1963452)
CONDITION_SUMMARY: PEO1/OlaR viability, CellTiter-Glo luminescence, 96 h; measured here: PEO1 parental Z-AUC; stronger effect = lower value
Where a SMILES comes first, the peptide text is derived from it. [ ]: non-standard residue; d: D form.
Kindly apply the following: label 1 if Z-AUC is less than -0.4, label 0 in every other case.

• Cc1[nH]cnc1CN1CCN(C(=O)N[C@@H](CC(C)C)C(=O)O)[C@@H](Cc2ccccc2)C1=O = label 0
• N#Cc1ccc(N(Cc2ccc(Br)cc2)n2cnnc2)cc1 = label 1
• C[C@@]1(c2ncncc2F)NC(=O)c2cc(-c3cn[nH]c3)ccc21 = label 1
• NC(=O)c1cccc2c(NC(CN3CCC3)c3ccc(Cl)c(C(F)(F)F)c3)ncnc12 (centres undefined) = label 0
• CCC(=C/[C@H](C)C/C=C/C(C)=C/[C@@H](C)C(=O)[C@@H](C)[C@H](O)[C@@H](C)C/C(C)=C/C(=O)O)/C=C/[C@@H]1OC(=O)C=C[C@@H]1C = label 1
• C=C1C[C@H]2C=Nc3cc(OCCCOc4cc5c(cc4OC)C(=O)N4CC(=C)C[C@H]4C=N5)c(OC)cc3C(=O)N2C1 = label 0
• O=C(O)c1ccc(O)c2ncccc12 = label 0
• CC(C)C[C@H](NC(=O)[C@H](Cc1ccccc1)NC(=O)OCc1ccccc1)C(=O)C=O = label 0
• COc1cccc2c1C(=O)c1c(O)c3c(c(O)c1C2=O)C[C@@](O)(/C(CO)=N/NC(=O)CCCCCN1C(=O)C=CC1=O)C[C@@H]3O[C@H]1C[C@H](N)[C@H](O)[C@H](C)O1 = label 1
• Fc1cccc(-n2cnc3c(NCc4nc5c(F)c(F)ccc5[nH]4)nc(N4CCOCC4)nc32)c1 = label 1
• COc1nc(N)nc2c1ncn2C1OC(CO)C(O)C1O (centres undefined) = label 1
• CC(C)C[C@@H]1NC(=O)[C@@H](C(C)C)NC(=O)[C@@H]2CCCN2C(=O)[C@@H](CC(=O)O)NC(=O)[C@@H](Cc2c[nH]c3ccccc23)NC1=O (cyclo(L[dW][dD]P[dV])) = label 0
• CNCCn1c(=O)c2cc(OC)c(OC)cc2c2cnc3cc4c(cc3c21)OCO4 = label 1
• N#Cc1ccnc(N2C(=O)CC[C@H]2C(=O)N(c2cncc(F)c2)C(C(=O)NC2CC(F)(F)C2)c2ccccc2Cl)c1 (some centres undefined) = label 0

Cited source for all entries: PubChem BioAssay (NCATS)
